Measured values drawn from patent US20170247475A1 for this set.

Molecular target: T1, recombinant human VEGF165 (human, UniProt P15692-4 27-191)
T1 construct: also called hVEGF165; rhVEGF165
T1 sequence (P15692 other isoform, or with tags, fused parts or gaps limits assumed): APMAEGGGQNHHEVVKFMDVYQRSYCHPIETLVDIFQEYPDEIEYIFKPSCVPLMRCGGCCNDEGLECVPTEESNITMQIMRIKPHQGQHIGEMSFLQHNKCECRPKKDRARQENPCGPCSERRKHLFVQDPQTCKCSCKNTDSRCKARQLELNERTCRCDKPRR
Experiment: Biacore, periplasmic extract on hVEGF165 chip, two phase decay fit
measure: % fast (%)
Could you give me the number in %? Just the number is fine.

binder | % fast, %
VEGFBII61A01 (VHH, periplasmic extract) VHH: EVQLVESGGGLVQAGGSLRLSCAFSGRTFSSYSMGWFRQAQGKEREFVVAISSGGYKYDAVSLEGRFTISRDNTKNTVYLQTPSLKPEDTAVYYCAASRAYASSRLRLADTYDYWGQGTQVTVSS | 21
VEGFBII23G03 (VHH, periplasmic extract) VHH: EVQLVESGGGLVQPGDSLKLSCAFSGRTFGSYSMGWFRQAQGKEREFVVAISSSGGYIYDSVSLEGRFTISRDNSKNTVYLQTPSLKPEDTAVYYCAASRAYGSSRLRLPGTYDYWGQGTQVTVSS | 28
VEGFBII56E11 (VHH, periplasmic extract) VHH: EVQLVESGGGLVQPGDSLKLSCAFSGRTFSSYSMGWFRQAQGKEREFVVAISSSGGYIYDSVSLEGRFTISRDNTKNTVYLQTPSLKPEDAADYYCAASRAYGSSRLRLADTYDYWGQGTQVTVSS | 24
VEGFBII30C09 (VHH, periplasmic extract; also called VEGFBII30009) VHH: EVQLVESGGGLVQPGDSLKLSCIASGRTSSSYSMGWFRQAQGQEREFVVAISSGGYIYDSVSLQGRFTISRDNTKNTVYLQTPSLKPEDTAVYYCAASRAYGSSRLRLADTYDYWGQGTQVTVSS | 19
VEGFBII23F05 (VHH, periplasmic extract) VHH: EVQLVESGGGLVQAGDSLRLSCAASGRTFSSYSMGWFRQAQGKEREFVVAISSSGNYKYDSVSLEGRFTISRDNTKNTVYLQINSLKPKDTAVYYCAASRAYGSSRLRLGDTYDYWGQGTQVTVSS | 29
VEGFBII41G03 (VHH, periplasmic extract) VHH: EVQLVESGGGLVQPGDSLKLSCAFSGRTFSSYSMAWFRQAQGKEREFVVAISSGGFIYDAVSLEGRFTISRENTKNTVYLQTPSLKPEDTAVYYCAASRAYGSSRLRLADTYDYWGQGTQVTVSS | 20
VEGFBII41B05 (VHH, periplasmic extract) VHH: EVQLVESGGGLVQPGGSLRLSCAFSGRTFSSYSMGWFRQAQGKEREFVVAISSGGFIYDAVSLEGRFTISRDNTKNTVYLQTPSLKPEDTAVYYCAASRAYGSSRLRLADTYDYWGQGTQVTVSS | 16
VEGFBII39G04 (VHH, periplasmic extract) VHH: EVPLVESGGGLVQAGDSLRLSCAASGRTFSSYSMGWFRQAQGKEREFVVAISSSGNYKYDSASLEGRFTISRDNTKNTVYLQINSLKPEDTAVYYCAASRAYGSSRLRLGDTYDYWGQGTQVTVSS | 40

I'd like to know its % fast. The binder in question is VEGFBII27G07 (VHH, periplasmic extract) VHH: EVQLVESGGGLVQPGDSLKLSCVASGRTSSSYSMGWFRQAQGQEREFVVAISSGGYIYDSVSLQGRFTISRDNTKNTVYLQTPSLKPEDTAVYYCAASRAYGSSRLRLADTYDYWGQGTQVTVSS
18

I'd like to know its % fast. The binder in question is VEGFBII22A11 (VHH, periplasmic extract) VHH: EVQLVESGGGLVQPGDSLKLSCAFSGRTFSSYSMAWFRQAQGKEREFVVAISSGGFIYDAVSLEGRFTISRDNTKNTVYLQTPSLKPEDTAVYYCAASRAYGSSRLRLADTYDYWGQGTQVTVSS
12

I'd like to know its % fast. The binder in question is VEGFBII24C04 (VHH, also called VEGFBII24C4) VHH: EVQLVESGGGLVQPGDSLKLSCVASGRTSSSYSMGWFRQAQGKEREFVVAISSGGYIYDSVSLQGRFTISRDNTKNTVYLQTPSLKPEDTAVYYCAASRAYGSSRLRLADTYDYWGQGTQVTVSS
17
